Measured cAMP EC50 (nM) Data Set 3 accompanies every entry in the list below.
biological target: human cannabinoid receptor type 1 (CB1) (human, UniProt P21554 1-472); assay: cell-based or functional assay
Sequence (P21554 whole entry): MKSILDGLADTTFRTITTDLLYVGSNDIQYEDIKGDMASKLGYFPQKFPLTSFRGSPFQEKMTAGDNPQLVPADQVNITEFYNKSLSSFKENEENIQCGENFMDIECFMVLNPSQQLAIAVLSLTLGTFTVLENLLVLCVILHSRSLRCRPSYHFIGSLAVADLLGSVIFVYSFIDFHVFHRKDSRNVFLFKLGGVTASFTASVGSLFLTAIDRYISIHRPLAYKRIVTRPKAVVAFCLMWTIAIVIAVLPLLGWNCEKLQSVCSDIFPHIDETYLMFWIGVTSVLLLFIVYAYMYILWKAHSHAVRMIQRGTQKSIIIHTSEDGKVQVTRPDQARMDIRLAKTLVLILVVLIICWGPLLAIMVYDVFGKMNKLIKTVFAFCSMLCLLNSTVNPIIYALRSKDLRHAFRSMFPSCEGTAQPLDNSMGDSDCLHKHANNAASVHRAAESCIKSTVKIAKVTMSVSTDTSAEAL
measurementLabel: cAMP EC50 (nM) Data Set 3

{"binder": "M8 mouse anti-huCB-1 antibody (antibody, V domains shown) VH: QVQLQQPGAELVKPGASVKLSCKASGYTFTDYWMHWVKQRPGHGLEWIGEIYPSSGRANYNGNFKRKATLTVDKSSSTAYMQLSSLTSEDSAVYYCARSRGNYLPYWGHGTPVTVSA VL: QIVLTQSPAIMSASLGERVTMTCTAGSTVSSSYLHWYQQRPGSSPKLWIYGTSNLASGVPARFSGSGSGTSYSLTISSMEAEDAATYYCHQYHRSPPTFGGGTKLEIK", "measurementLabel": "cAMP EC50 (nM) Data Set 3", "uom": "nM", "valueObserved": 370}
{"binder": "M3 mouse anti-huCB-1 antibody (antibody, V domains shown) VH: QVQLQQSGPELVRPGVSVKISCKGSGYEFTDYALHWVKQSHAETLEWIGLITTYYGDTNYNQKFKGKATMTVDKSSSTAYMELARLTSEDSAIYYCARGGYYYGTDYRYFDVWGAGTTVTVSS VL: DILLTQSPAILSVSPGERVSFSCRASQSIGTNIHWYQQRPNGSPRLLIKYASESISGIPSRFSGSGSGSDFTLSINSVESEDIADYYCQQSITWPLTFGAGTKLELK", "measurementLabel": "cAMP EC50 (nM) Data Set 3", "uom": "nM", "valueObserved": 330}
{"binder": "M6 mouse anti-huCB-1 antibody (antibody, V domains shown) VH: EVQLQQSGPELVKPGASVKISCKASGYTFTDYNLHWVKHGKSLEWIGYIYPYDGDTGYKQKFKGKATLTADKSSSTAYMELRSLTCEDSAVYYCARGYGNSWGAYWGQGTLVTVSA VL: EIVLTQSPTTMAASPGEKITITCSATSSISSNYLHWYQQKPGFSPKLLIYRTSNLASGVPARFSGSGSGTSYSLTIGTMEAEDVATYYCQQGSSIPYTFGGGTKLEIK", "measurementLabel": "cAMP EC50 (nM) Data Set 3", "uom": "nM", "valueObserved": 640}
{"binder": "M7 mouse anti-huCB-1 antibody (antibody, V domains shown) VH: EVQLQQPGAELVRPGASVKLSCKASSYTFTRYWMNWVKQRPEEGLEWIGMIDPYDSETHYNQKFKDKAILTVDKSSSTAYMQLSTLTSEDSAVYFCARSQPRYYAMDYWGQGTSVTVSS VL: DIQMSQSPSSLSASLGERVSLTCRASQEISGFLSWLQLRPDGTIKRLIYAASSLDSGVPKRFRGSWSGSDYSLTISSLESEDFADYYCLQYSSYPYTFGGGTKLEIK", "measurementLabel": "cAMP EC50 (nM) Data Set 3", "uom": "nM", "valueObserved": 120}
{"binder": "M4 mouse anti-huCB-1 antibody (antibody, V domains shown) VH: QVQLQQSGAELVRPGSSVKISCKASGYEFNYYWMNWVKQRPGQGLEWIGQIYPGDGDINYNGKFKGKATLTSDKSSSTVYMQLSSLTSEDSAVYFCSRSKGNPFAYWGQGTLVTVSA VL: DIQMTQTTSSLSASLGDSVTISCRASQGIRNYLNWYQQKPDGTVKLLIYYTSRLHSGVPPRFSGSGSGTDYSLTISNLEQEDLATYFCQQGNTLPYTFGGGTKLEIK", "measurementLabel": "cAMP EC50 (nM) Data Set 3", "uom": "nM", "valueObserved": 430}
